experiment: gradient 5% acetonitrile 3 min, to 50% in 2 min, to 85% in 15 min, held 3 min, 100 µL/min; conditions: column: Zorbax Extend-C18 2.1 x 50 mm; eluents: water / acetonitrile, 0.1% formic acid
MEASUREMENT LABEL: RP-LC retention time (s)

>>> result_number("CCOC(=O)c1ccc(NS(=O)(=O)c2c[nH]c3ncccc23)cc1")
734
>>> result_number("COc1ccc(CNC(=O)c2ccc3c(c2)OCO3)c(OC)c1")
749
>>> result_number("CNc1ncnc2c1cnn2-c1ccc(F)cc1")
657
>>> result_number("COc1ccc(-c2noc(C3CCCN3C(=O)c3ccc(OC)nc3)n2)cc1 (stereo not given)")
879
>>> result_number("Cc1ccc(CCNC(=O)c2cc3n(n2)CC(C)(C(=O)NC2CCCCC2)N(C)C3=O)cc1 (stereo not given)")
844
>>> result_number("Cc1ccc(C(=O)Nc2ccccc2[N+](=O)[O-])cc1")
967
>>> result_number("COc1ccc(-c2noc(-c3nc(Cc4ccccc4)no3)n2)cc1")
1170
>>> result_number("COc1ccc(CNC(=O)C2CCN(c3cnc4nccnc4c3)CC2)cc1")
664
>>> result_number("COc1cccc(CNC(=O)Cn2ccc3ccc(N4CCOCC4)nc32)c1")
858
>>> result_number("COc1ccc2c(c1)C1(CCN(S(=O)(=O)c3cccc(C)c3)C1)C(=O)N2C (stereo not given)")
941
